Dear all, this message contains log10 of IC50 results, target or system Sodium-dependent dopamine transporter (Rattus norvegicus).
Please interpret these as log10 of IC50 where IC50 is in nM.

Sample records with log10 of IC50:
>>> recorded_number("CONC(=O)C1C(c2ccc(Cl)cc2)CC2CCC1N2C (stereo unspecified)")
1.03
>>> recorded_number("COC(=O)C1C(c2ccc(Cl)c(Cl)c2)CC2CCC1N2C (stereo unspecified)")
-0.10
>>> recorded_number("CN1C2CCC1C(C(=O)Oc1ccc(Cl)cc1)C(c1ccc(Cl)cc1)C2 (stereo unspecified)")
1.74
>>> recorded_number("CN(C(=O)C1C(c2ccc(Cl)cc2)CC2CCC1N2C)c1ccccc1 (stereo unspecified)")
1.66
>>> recorded_number("CON(C)C(=O)C1C(c2ccc(I)cc2)CC2CCC1N2C (stereo unspecified)")
0.03

Could you share which log10 of IC50 value was measured for COc1ccc(OC(=O)C2C(c3ccc(Cl)cc3)CC3CCC2N3C)cc1 (stereo unspecified) ?
1.85

Could you share which log10 of IC50 value was measured for Cc1ccc(C2CC3CCC(C2C(=O)N2CCOCC2)N3C)cc1 (stereo unspecified) ?
1.07

Could you share which log10 of IC50 value was measured for CN1C2CCC1C(C(=O)Oc1ccccc1)C(OC(=O)c1ccccc1)C2 (stereo unspecified) ?
2.05

Could you share which log10 of IC50 value was measured for CN1C2CCC1C(C(=O)OCCc1ccccc1)C(OC(=O)c1ccccc1)C2 (stereo unspecified) ?
2.26

Could you share which log10 of IC50 value was measured for Cc1ccc(C2CC3CCC(C2C(=O)Oc2cccc(C)c2)N3C)cc1 (stereo unspecified) ?
0.91

Could you share which log10 of IC50 value was measured for CNC(=O)C1C(c2ccc(Cl)cc2)CC2CCC1N2C (stereo unspecified) ?
1.09

Could you share which log10 of IC50 value was measured for CN1C2CCC1C(C(=O)OC1CC1)C(c1ccc(Cl)cc1)C2 (stereo unspecified) ?
-0.02

Could you share which log10 of IC50 value was measured for CN1C2CCC1C(C(=O)N1CCC1)C(c1ccc(Cl)cc1)C2 (stereo unspecified) ?
0.82

Could you share which log10 of IC50 value was measured for Cc1ccc(C2CC3CCC(C2C(=O)OC(C)C)N3C)cc1 (stereo unspecified) ?
0.81

Could you share which log10 of IC50 value was measured for COC(=O)C1C(c2ccc(N)c(I)c2)CC2CCC1N2C (stereo unspecified) ?
0.13

Could you share which log10 of IC50 value was measured for CN1C2CCC1C(C(=O)N1CCCO1)C(c1ccc(Cl)cc1)C2 (stereo unspecified) ?
0.17

Could you share which log10 of IC50 value was measured for CON(C)C(=O)C1C(c2ccc(Cl)cc2)CC2CCC1N2C (stereo unspecified) ?
-0.07

Could you share which log10 of IC50 value was measured for Cc1ccc(C2CC3CCC(C2C(=O)OC2CC2)N3C)cc1 (stereo unspecified) ?
0.23

Could you share which log10 of IC50 value was measured for CN1C2CCC1C(C(=O)N1CCCO1)C(c1ccc(I)cc1)C2 (stereo unspecified) ?
-0.12

Could you share which log10 of IC50 value was measured for Cc1ccc(OC(=O)C2C(c3ccc(Cl)cc3)CC3CCC2N3C)cc1 (stereo unspecified) ?
1.44

Entry source: ChEMBL document CHEMBL1128444
